test: NCI Yeast Anticancer Drug Screen. Data for the mec2-1 strain (AID 157); settings: S. cerevisiae mec2-1 strain, at 50.0 µM, stronger effect = higher value
About 79,000 compounds went through this panel and 15% of them were active in at least one assay; those are over-represented in the sample as a whole. Calls of active or inactive are those of the source. No stated cut-off is given here; in the data, active means growth inhibition above about 70%; inactive means the rest.
Overview of recorded growth inhibition for various compounds

NC(N)=Nc1cccc2c1CC=CC2    -3.45% (inactive)
CC(C)CCCC(C)C1CCC2C3CC=C4CC(OC5CCC6(C)C(=CCC7C6CCC6(C)C(C(C)CCCC(C)C)CCC76)C5)CCC4(C)C3CCC12C (configuration not stated)    -12.8% (inactive)

Query :: Provide one value: measured growth inhibition of CN(C)CCN1N=Nc2cccc3cccc1c23
Result :: 18.2% (inactive)

Query :: Quick one: give measured growth inhibition for CCN(CC)C(=O)N1C=CC(C)C=C1
Result :: -15.1% (inactive)

Query :: Note growth inhibition for the compound shown: CC(O)CNCc1ccc(N(C)C)cc1 (configuration not stated)
Result :: 0.4% (inactive)
